target: Full-length glucokinase (beta cell isoform) (Homo sapiens); construct: Full-length glucokinase (beta cell isoform) was His-tagged at N-terminus; His tag (N); made in house; assay: Glucokinase biochemical assay (PK/LDH-coupled, NADH depletion at 340 nm): % activation, EC50, % max activation; conditions: 5 mM glucose; GK activation; read-out: EC50
Sequence (P35557 whole entry, species assumed, canonical isoform): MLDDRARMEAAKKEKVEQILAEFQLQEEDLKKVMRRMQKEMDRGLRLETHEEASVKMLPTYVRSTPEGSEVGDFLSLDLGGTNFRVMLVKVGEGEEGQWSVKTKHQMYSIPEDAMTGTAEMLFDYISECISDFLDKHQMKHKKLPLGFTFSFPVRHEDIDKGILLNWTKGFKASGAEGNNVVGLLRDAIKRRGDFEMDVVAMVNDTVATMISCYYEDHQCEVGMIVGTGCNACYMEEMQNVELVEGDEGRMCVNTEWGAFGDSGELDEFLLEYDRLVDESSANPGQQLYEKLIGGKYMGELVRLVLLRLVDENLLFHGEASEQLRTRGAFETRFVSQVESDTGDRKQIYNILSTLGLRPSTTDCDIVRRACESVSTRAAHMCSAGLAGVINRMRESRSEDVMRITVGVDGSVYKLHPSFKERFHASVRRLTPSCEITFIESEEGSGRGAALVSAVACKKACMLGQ
pEC50: −log10 of the molar value.
QUANTITY_NAME: pEC50

A = COC(=O)c1ccc(NC(=O)c2cc(Oc3ccc(S(C)(=O)=O)cc3)c3cc(C)oc3c2)nc1 [Example 264]
B = Cn1ccc(NC(=O)c2cc(OCc3cc(O)nc(C4CC4)n3)c3c(c2)OC(C)(C)C3)n1 [Example 95]
Exercise: Select the item whose pEC50 value is smaller, choosing between A and B . Use the label to indicate which entry you chose.
Key: A
(A: 5.89, B: 6.20)

a = COCC1Cc2c(Oc3ccc(C(=O)N4CCC4)cc3)cc(C(=O)Nc3ccn(C)n3)cc2O1 (single isomer, unassigned; (-)) [Example 209]
b = Cn1ccc(NC(=O)c2cc(Oc3ccc(C(F)F)cc3)c3c(c2)OC(C)(C)C3)n1 [Example 38]
c = Cc1nnc(NC(=O)c2cc(Oc3ccc(S(C)(=O)=O)cc3)c3c(c2)OC(C)(C)C3)s1 [Example 24]
Exercise: Put the entries in order of pEC50, starting with the largest number. Put the labels in the requested order and write them down.
Key: a, c, b

A = Cn1ccc(NC(=O)c2cc(Oc3cc(F)cc(F)c3)c3c(c2)OC(C)(C)C3)n1 [Example 113]
B = COCC1Cc2c(Oc3ccc(C(=O)N(C)C)c(F)c3)cc(C(=O)Nc3ccn(C)n3)cc2O1 (single isomer, unassigned; (-)) [Example 206]
C = Cn1ccc(NC(=O)c2cc(Oc3ccc(C(=O)N4CCC4)c(F)c3)c3c(c2)OC(C)(C)C3)n1 [Example 33]
D = Cc1ccc(NC(=O)c2cc(Oc3ccc(S(C)(=O)=O)cc3)c3cc(C)oc3c2)nc1 [Example 252]
E = Cn1ccc(NC(=O)c2cc(Oc3ccc(C(=O)N4CCOCC4)cc3F)c3c(c2)OC(C)(C)C3)n1 [Example 41]
Exercise: Kindly order the items shown according to pEC50, from the highest value down. Put the labels in the requested order and write them down.
Key: C, B, D, E, A

1 = CC1Cc2c(Oc3ccc(S(C)(=O)=O)cc3)cc(C(=O)Nc3ccn(C)n3)cc2O1 (single isomer, unassigned; (-)) [Example 12]
2 = Cc1ccc(NC(=O)c2cc(Oc3ccc(S(C)(=O)=O)cc3)c3c(c2)OC(C)(C)C3)nc1 [Example 3]
Exercise: Which of the two items, 1 and 2 , has the greater recorded pEC50? Returns: label corresponding to the selected item.
Key: 2

1 = Cc1ncccc1COc1cc(C(=O)Nc2ccn(C)n2)cc2c1CC(C)(C)O2 [Example 106]
2 = Cn1ccc(NC(=O)c2cc(Oc3ccc(C(=O)N4CCCCC4)c(F)c3)c3c(c2)OC(C)(C)C3)n1 [Example 61]
Exercise: Could you tell me which of 1 and 2 has the lower pEC50 reading? Lab note: record the label of whichever item you select.
Key: 1
